We begin with a simple list: items and their reported inhibition in vivo at 50 mg/kg.
system: Rattus norvegicus; experiment: Anti-inflammatory activity in Rattus norvegicus Wistar albino (rat) assessed as inhibition of carrageenan-induced paw edema at 50 mg/kg, po administered for 30 min prior to carrageenan challenge measured at 3 hr relative to control; type: functional
Give the number; % is assumed, so skip it.

>>> observed_value("Cc1ccc(-c2nn(-c3ccc(S(N)(=O)=O)cc3)cc2/C=N/NC(N)=S)cc1")
75

Briefly, inhibition in vivo at 50 mg/kg measured for NS(=O)(=O)c1ccc(-n2cc(/C=N/Nc3nc(-c4ccc(Cl)cc4)cs3)c(-c3ccc(F)cc3)n2)cc1 : 73

Briefly, inhibition in vivo at 50 mg/kg measured for NS(=O)(=O)c1ccc(-n2cc(/C=N/Nc3nc(-c4ccccc4)cs3)c(-c3ccccc3)n2)cc1 : 69

inhibition in vivo at 50 mg/kg in this record for NC(=S)N/N=C/c1cn(-c2ccc(S(N)(=O)=O)cc2)nc1-c1ccc(F)cc1 : 73

Recorded result, NS(=O)(=O)c1ccc(-n2cc(/C=N/Nc3nc(-c4ccc(Cl)cc4)cs3)c(-c3ccc(Cl)cc3)n2)cc1 , inhibition in vivo at 50 mg/kg: 73

Item: Cc1ccc(-c2nn(-c3ccc(S(N)(=O)=O)cc3)cc2/C=N/Nc2nc(-c3ccccc3)cs2)cc1 | inhibition in vivo at 50 mg/kg: 75

Notebook: Cc1ccc(-c2csc(N/N=C/c3cn(-c4ccc(S(N)(=O)=O)cc4)nc3-c3ccc(Cl)cc3)n2)cc1 , inhibition in vivo at 50 mg/kg read as 70

Looking up COc1ccc(-c2nn(-c3ccc(S(N)(=O)=O)cc3)cc2/C=N/NC(N)=S)cc1 , I found its inhibition in vivo at 50 mg/kg recorded as 59

====

tested on: Bacillus subtilis; assay: Antibacterial activity against Bacillus subtilis MTCC 121 by NCCLS broth macrodilution method; assay type: functional
reported-property: MIC

Example compounds with recorded MIC:
>>> observed_value("NS(=O)(=O)c1ccc(-n2cc(/C=N/Nc3nc(-c4ccccc4)cs3)c(-c3ccc(F)cc3)n2)cc1")
"> 128 µg/mL"
>>> observed_value("NS(=O)(=O)c1ccc(-n2cc(/C=N/Nc3nc(-c4ccc(Cl)cc4)cs3)c(-c3ccc(F)cc3)n2)cc1")
"> 128 µg/mL"

Let me check: Cc1ccc(-c2nn(-c3ccc(S(N)(=O)=O)cc3)cc2/C=N/NC(N)=S)cc1 , system Bacillus subtilis, measured MIC is > 128 µg/mL

// MIC (Bacillus subtilis) for Cc1ccc(-c2csc(N/N=C/c3cn(-c4ccc(S(N)(=O)=O)cc4)nc3-c3ccc(Cl)cc3)n2)cc1 = > 128 µg/mL

Entry O=C(O)c1cn(C2CC2)c2cc(N3CCNCC3)c(F)cc2c1=O [CIPROFLOXACIN] under Bacillus subtilis had MIC of 5 µg/mL

====

tested on: Pseudomonas aeruginosa; details: MTCC 741, 4 mg/ml
Description: Antibacterial activity against Pseudomonas aeruginosa MTCC 741 at 4 mg/ml after 24 hr by agar well diffusion method
The source made the active and inactive calls. The calls are words filed in the database; no cut-off is given here.
reported-property: DIZ

>>> observed_value("NS(=O)(=O)c1ccc(-n2cc(/C=N/Nc3nc(-c4ccccc4)cs3)c(-c3ccccc3)n2)cc1")
"inactive"
>>> observed_value("NS(=O)(=O)c1ccc(-n2cc(/C=N/Nc3nc(-c4ccccc4)cs3)c(-c3ccc(Cl)cc3)n2)cc1")
"inactive"
>>> observed_value("Cc1ccc(-c2csc(N/N=C/c3cn(-c4ccc(S(N)(=O)=O)cc4)nc3-c3ccc(C)cc3)n2)cc1")
"inactive"

====

Entries and their inhibition in vivo at 50 mg/kg values follow.
tested on: Rattus norvegicus; experiment: Anti-inflammatory activity in Rattus norvegicus Wistar albino (rat) assessed as inhibition of carrageenan-induced paw edema at 50 mg/kg, po administered for 30 min prior to carrageenan challenge measured at 3 hr relative to control; format: functional
Answer format: numeric, % implied, no suffix.

Reference set, count: 6
>>> observed_value("Cc1ccc(-c2csc(N/N=C/c3cn(-c4ccc(S(N)(=O)=O)cc4)nc3-c3ccc(C)cc3)n2)cc1")
75
>>> observed_value("Cc1ccc(-c2nn(-c3ccc(S(N)(=O)=O)cc3)cc2/C=N/Nc2nc(-c3ccc(Cl)cc3)cs2)cc1")
60
>>> observed_value("Cc1ccc(-c2csc(N/N=C/c3cn(-c4ccc(S(N)(=O)=O)cc4)nc3-c3ccccc3)n2)cc1")
57
>>> observed_value("COc1ccc(-c2nn(-c3ccc(S(N)(=O)=O)cc3)cc2/C=N/Nc2nc(-c3ccc(Cl)cc3)cs2)cc1")
69
>>> observed_value("NC(=S)N/N=C/c1cn(-c2ccc(S(N)(=O)=O)cc2)nc1-c1ccc(Cl)cc1")
77
>>> observed_value("NS(=O)(=O)c1ccc(-n2cc(/C=N/Nc3nc(-c4ccc(Cl)cc4)cs3)c(-c3ccccc3)n2)cc1")
75

// inhibition in vivo at 50 mg/kg lookup, molecule = Cc1ccc(-c2csc(N/N=C/c3cn(-c4ccc(S(N)(=O)=O)cc4)nc3-c3ccc(F)cc3)n2)cc1 , result: 73

Consider NS(=O)(=O)c1ccc(-n2cc(/C=N/Nc3nc(-c4ccccc4)cs3)c(-c3ccc(F)cc3)n2)cc1 . Its measured inhibition in vivo at 50 mg/kg is 65

Noted for COc1ccc(-c2nn(-c3ccc(S(N)(=O)=O)cc3)cc2/C=N/Nc2nc(-c3ccc(C)cc3)cs2)cc1 : its inhibition in vivo at 50 mg/kg reads 72

Just so you know, measured inhibition in vivo at 50 mg/kg for COc1ccc(-c2nn(-c3ccc(S(N)(=O)=O)cc3)cc2/C=N/Nc2nc(-c3ccccc3)cs2)cc1 came out at 61

Looking up NC(=S)N/N=C/c1cn(-c2ccc(S(N)(=O)=O)cc2)nc1-c1ccccc1 , I found its inhibition in vivo at 50 mg/kg recorded as 67

inhibition in vivo at 50 mg/kg in this record for NS(=O)(=O)c1ccc(-n2cc(/C=N/Nc3nc(-c4ccccc4)cs3)c(-c3ccc(Cl)cc3)n2)cc1 : 57

====

Each entry below lists one item and its recorded MIC value.
system: Bacillus subtilis; assay: Antibacterial activity against Bacillus subtilis MTCC 121 by NCCLS broth macrodilution method; type: functional

>>> observed_value("NS(=O)(=O)c1ccc(-n2cc(/C=N/Nc3nc(-c4ccccc4)cs3)c(-c3ccc(Cl)cc3)n2)cc1")
"> 128 µg/mL"
>>> observed_value("Cc1ccc(-c2csc(N/N=C/c3cn(-c4ccc(S(N)(=O)=O)cc4)nc3-c3ccccc3)n2)cc1")
"> 128 µg/mL"
>>> observed_value("NC(=S)N/N=C/c1cn(-c2ccc(S(N)(=O)=O)cc2)nc1-c1ccc(F)cc1")
"> 128 µg/mL"
>>> observed_value("Cc1ccc(-c2csc(N/N=C/c3cn(-c4ccc(S(N)(=O)=O)cc4)nc3-c3ccc(F)cc3)n2)cc1")
"> 128 µg/mL"
>>> observed_value("NS(=O)(=O)c1ccc(-n2cc(/C=N/Nc3nc(-c4ccccc4)cs3)c(-c3ccccc3)n2)cc1")
"> 128 µg/mL"

// compound NS(=O)(=O)c1ccc(-n2cc(/C=N/Nc3nc(-c4ccc(Cl)cc4)cs3)c(-c3ccc(Cl)cc3)n2)cc1 , assay Bacillus subtilis, MIC value: > 128 µg/mL

====

test system: Bacillus subtilis; test: Antibacterial activity against Bacillus subtilis MTCC 121 by NCCLS broth macrodilution method; assay type: functional
reported-property: MIC

Observe how each entry below is paired with its result.
>>> observed_value("COc1ccc(-c2nn(-c3ccc(S(N)(=O)=O)cc3)cc2/C=N/Nc2nc(-c3ccc(C)cc3)cs2)cc1")
"128 µg/mL"
>>> observed_value("NC(=S)N/N=C/c1cn(-c2ccc(S(N)(=O)=O)cc2)nc1-c1ccccc1")
"64 µg/mL"
>>> observed_value("NS(=O)(=O)c1ccc(-n2cc(/C=N/Nc3nc(-c4ccc(Cl)cc4)cs3)c(-c3ccccc3)n2)cc1")
"> 128 µg/mL"
>>> observed_value("Cc1ccc(-c2nn(-c3ccc(S(N)(=O)=O)cc3)cc2/C=N/Nc2nc(-c3ccc(Cl)cc3)cs2)cc1")
"> 128 µg/mL"
>>> observed_value("COc1ccc(-c2nn(-c3ccc(S(N)(=O)=O)cc3)cc2/C=N/Nc2nc(-c3ccc(Cl)cc3)cs2)cc1")
"> 128 µg/mL"

Next compound, MIC to be filled in.
So, COc1ccc(-c2nn(-c3ccc(S(N)(=O)=O)cc3)cc2/C=N/NC(N)=S)cc1 ? Its MIC was > 128 µg/mL
